System: HIV mutant strain Y181C
Assay protocol: Cell-based assay using BH-10 cells, Y181C mutant
Condition parameters: Human immunodeficiency virus 1, read-out: EC50 Y181C, BH-10 cells, Y181C mutant
Record form. Attribute: log10 EC50. Fill in for each entry.
Lab note - EC50 converted to log10 from values in nM.

Here are 10 compounds together with their reported answers.
Compound	log10 EC50
COP(=O)(c1cc(C)cc(C)c1)c1c(C(=O)NCc2ccncc2)[nH]c2ccc(Cl)cc12 (stereo not shown) [Compound 18ax]	0.86
CCOP(=O)(c1ccccc1)c1c(C(N)=O)[nH]c2ccc(Cl)cc12 (stereo not shown) [Compound 6a]	1.14
COP(=O)(c1cc(C)cc(C)c1)c1c(C(=O)NCc2cc[n+](C)cc2)[nH]c2ccc(Cl)cc12 (stereo not shown) [Compound 22l]	2.43
COP(=O)(c1cccc2ccccc12)c1c(C(N)=O)[nH]c2ccc(Cl)cc12 (stereo not shown) [Compound 7t]	0.76
CCc1cc(C)cc(P(=O)(OC)c2c(C(N)=O)[nH]c3ccc(Cl)cc23)c1 (stereo not shown) [Compound 7w]	0.74
CCc1cccc(P(=O)(OC)c2c(C(=O)NCc3ccncc3)[nH]c3ccc(Cl)cc23)c1 (stereo not shown) [Compound 18ap]	0.57
CCOP(=O)(c1cc(C)cc(C)c1)c1c(C(=O)NCc2ccncc2)[nH]c2ccc(Cl)cc12 (stereo not shown) [Compound 9a]	1.76
COP(=O)(c1cc(C)cc(C)c1)c1c(C(=O)NCc2cc[n+]([O-])cc2)[nH]c2ccc(Cl)cc12 (stereo not shown) [Compound 22n]	0.94
COc1cccc(P(=O)(OC)c2c(C(=O)NCc3ccco3)[nH]c3ccc(Cl)cc23)c1 (stereo not shown) [Compound 18au]	0.52
COP(=O)(c1cc(C)cc(C)c1)c1c(C(=O)NCc2cccc[n+]2[O-])[nH]c2ccc(Cl)cc12 (stereo not shown) [Compound 22p]	1.71

Please state log10 EC50 for every compound in the list that follows.
1. COP(=O)(c1cccc(CF)c1)c1c(C(N)=O)[nH]c2ccc(Cl)cc12 (stereo not shown) [Compound 7h]
2. C=Cc1cccc(P(=O)(OC)c2c(C(N)=O)[nH]c3ccc(Cl)cc23)c1 (stereo not shown) [Compound 18aaq]
3. COP(=O)(c1cccs1)c1c(C(N)=O)[nH]c2ccc(Cl)cc12 (stereo not shown) [Compound 52b]
4. COP(=O)(c1cc(C)cc(C#N)c1)c1c(C(=O)NCc2cncn2C)[nH]c2ccc(Cl)cc12 (stereo not shown) [Compound 18aag]
5. CCc1cccc(P(=O)(OC)c2c(C(N)=O)[nH]c3ccc(Cl)cc23)c1 (stereo not shown) [Compound 7d]

[0.79, 1.26, 0.94, 1.27, 0.81]

* * *

Record form. Attribute: solubility at 3 h. Fill in for each entry.
Assay protocol: pH dependent aqueous solubility, shake-flask method
Assay type: physicochemical
Condition parameters: aqueous solution, pH 9, aqueous buffer, thermodynamic from solid, pH9, ambient temperature, saturated concentration 1 mM, read-out: Aqueous solubility pH9
One number for each entry, in µM.

Here are 3 molecules together with their reported answers.
Molecule	Test result
COP(=O)(C1=C(C(=O)NCc2ccncc2)N=C2C=CC(Cl)=CC21)c1cc(C)cc(C)c1 (centres unmarked) [Compound N]	1.7
COP(=O)(c1cc(C)cc(C)c1)c1c(C(=O)NCc2cc[n+]([O-])cc2)[nH]c2ccc(Cl)cc12 (centres unmarked) [Compound D]	66.8
COP(=O)(c1cc(C)cc(C)c1)c1c(C(=O)NCc2cc[n+]([O-])cc2)[nH]c2ccc(Cl)c(F)c12 (centres unmarked) [Compound B]	190

Please state solubility at 3 h for every molecule in the list that follows.
1. COP(=O)(C1=C(C(=O)NCc2ccncc2)N=C2C=CC(Cl)=CC21)c1cc(C)cc(F)c1 (centres unmarked) [Compound P]
2. COP(=O)(C1=C(C(=O)NCc2ccncc2)N=C2C=CC(Cl)=C(F)C21)c1cc(C)cc(C)c1 (centres unmarked) [Compound O]

1. 33.8
2. 10.1

* * *

System: HIV BH-10 WT
Assay protocol: Cell-based assay using BH-10 cells, wild type
Condition parameters: BH-10 cells, wild type; read-out: EC50 WT///B
Measurement kind: pEC50
One number for each entry, as −log10 of the molar value.

Here are 3 compounds together with their reported answers.
Compound	Measurement kind	Test result
COP(=O)(c1cc(C)cc(C)c1)c1c(C(=O)NCc2cncnc2)[nH]c2ccc(Cl)cc12 (stereo not shown) [Compound 18j]	pEC50	8.44
COP(=O)(c1cccc(C)c1)c1c(C(N)=O)[nH]c2ccc(Cl)cc12 (stereo not shown)	pEC50	8.89
COP(=O)(c1ccccc1)c1c(C(N)=O)[nH]c2ncc(Cl)cc12 (stereo not shown)	pEC50	7.83

So what's the measured pEC50 for this one? CCOP(=O)(c1ccccc1C)c1c(C(N)=O)[nH]c2ccc(Cl)cc12 (stereo not shown)
7.67

* * *

Test system: HIV BH-10 WT
Assay protocol: Cell-based assay using BH-10 cells, wild type
Condition parameters: Human immunodeficiency virus 1, read-out: EC50 WT///B, BH-10 cells, wild type
Record form. Attribute: pEC50. Fill in for each entry.
One number for each entry, as −log10 of the molar value.

Please state pEC50 for every compound in the list that follows.
1. COP(=O)(c1cc(C)cc(C)c1)c1c(C(=O)NCc2ccncc2F)[nH]c2ccc(Cl)cc12 (stereo not shown) [Compound 18h]
2. CCOP(=O)(c1cccc2ccccc12)c1c(C(N)=O)[nH]c2ccc(Cl)cc12 (stereo not shown)
3. COP(=O)(c1c(C(N)=O)[nH]c2ccc(Cl)cc12)C1CCCCC1 (stereo not shown) [Compound 57a]
4. COP(=O)(c1cc(C)cc(C)c1)c1c(C(=O)NCc2ccccc2N)[nH]c2ccc(Cl)cc12 (stereo not shown) [Compound 18n]

[8.77, 7.49, 8.77, 7.71]

* * *

Record form. Attribute: Vd. Fill in for each entry.
Assay protocol: PK and oral bioavailability in the rat
Type: in vivo, Sprague-Dawley rats
Condition parameters: Sprague-Dawley, plasma, IV, 1.0 mg/kg, PEG400, read-out: Vss
Give bare numbers, in L/kg.

Compound	Test result
COP(=O)(c1cc(C)cc(C)c1)c1c(C(=O)NCc2cc[n+]([O-])cc2)[nH]c2ccc(Cl)cc12 (centres unmarked) [Compound D]	6.37

So what's the measured Vd for this one? COP(=O)(C1=C(C(=O)NCc2ccncc2)N=C2C=CC(Cl)=CC21)c1cc(C)cc(C)c1 (centres unmarked) [Compound N]
9.59

* * *

Record form. Attribute: Metabolic stability in liver microsomes % Parent after 2 hrs, Rat. Fill in for each entry.
Assay protocol: Metabolic stability in rat liver microsomes
Type: in vitro ADME
Condition parameters: 10 μM, 1 mg/mL microsomes, 37° C., 2 hrs
One number for each entry, in %.

Compound	Test result
COP(=O)(c1cc(C)cc(C)c1)c1c(C(=O)NCc2cc[n+]([O-])cc2)[nH]c2ccc(Cl)cc12 (centres unmarked)	1
COP(=O)(C1=C(C(=O)NCc2ccncc2)N=C2C=CC(Cl)=C(F)C21)c1cc(C)cc(C)c1 (centres unmarked)	2
COP(=O)(c1cc(C)cc(F)c1)c1c(C(=O)NCc2cc[n+]([O-])cc2)[nH]c2ccc(Cl)cc12 (centres unmarked)	24
COP(=O)(C1=C(C(=O)NCc2ccncc2)N=C2C=CC(Cl)=CC21)c1cc(C)cc(F)c1 (centres unmarked)	0

Next up:
So what's the measured Metabolic stability in liver microsomes % Parent after 2 hrs, Rat for this one? COP(=O)(c1cc(C)cc(C)c1)c1c(C(=O)NCc2cc[n+]([O-])cc2)[nH]c2ccc(Cl)c(F)c12 (centres unmarked)
1

* * *

Assay protocol: PK and oral bioavailability in the rat
Format: in vivo, Sprague-Dawley rats
Condition parameters: Sprague-Dawley, plasma, IV, 1.0 mg/kg, PEG400
Record form. Attribute: AUC(0-t). Fill in for each entry.
One number for each entry, in ng·h/mL.

Compound	Test result
COP(=O)(C1=C(C(=O)NCc2ccncc2)N=C2C=CC(Cl)=CC21)c1cc(C)cc(C)c1 (centres unmarked)	108

So what's the measured AUC(0-t) for this one? COP(=O)(c1cc(C)cc(C)c1)c1c(C(=O)NCc2cc[n+]([O-])cc2)[nH]c2ccc(Cl)cc12 (centres unmarked)
174

* * *

Record form. Attribute: pEC50. Fill in for each entry.
Tested on: HIV BH-10 WT
Assay protocol: Cell-based assay using BH-10 cells, wild type
Condition parameters: Human immunodeficiency virus 1, read-out: EC50 WT///B, BH-10 cells, wild type
Answers are plain numbers, as −log10 of the molar value.

Here are 10 compounds together with their reported answers.
Compound	pEC50
COP(=O)(c1cc(C)cc(C)c1)c1c(C(=O)NCc2ccncc2)[nH]c2ccc(Cl)cc12 (stereo not shown) [Compound 18ax]	8.52
COP(=O)(c1cccc(C2CC2)c1)c1c(C(N)=O)[nH]c2ccc(Cl)cc12 (stereo not shown)	8.66
CCc1cc(C)cc(P(=O)(OC)c2c(C(=O)NCc3ccc[n+]([O-])c3)[nH]c3ccc(Cl)cc23)c1 (stereo not shown) [Compound 22h]	8.80
COc1cccc(P(=O)(OC)c2c(C(=O)NCc3ccncc3)[nH]c3ccc(Cl)cc23)c1 (stereo not shown) [Compound 18av]	9.15
COP(=O)(c1cc(C)cc(C)c1)c1c(C(=O)NCc2ccc[n+]([O-])c2)[nH]c2ccc(Cl)cc12 (stereo not shown) [Compound 22b]	8.46
COP(=O)(c1cccc(C(C)(C)C)c1)c1c(C(N)=O)[nH]c2ccc(Cl)cc12 (stereo not shown)	8.54
COP(=O)(c1cc(C)cc(C)c1)c1c(C(=O)NCc2cc[n+]([O-])cc2)[nH]c2ccc(Cl)cc12 (stereo not shown) [Compound 22n]	8.70
CCOP(=O)(c1ccc(F)cc1)c1c(C(N)=O)[nH]c2ccc(Cl)cc12 (stereo not shown)	7.46
COP(=O)(c1cc(F)cc(F)c1)c1c(C(=O)NCc2ccncc2)[nH]c2ccc(Cl)cc12 (stereo not shown) [Compound 18e]	8.46
COP(=S)(c1ccccc1)c1c(C(N)=O)[nH]c2ccc(Cl)cc12 (stereo not shown) [Compound 25b]	9.40

Please state pEC50 for every compound in the list that follows.
1. CCOP(=O)(c1cccc(C#N)c1)c1c(C(N)=O)[nH]c2ccc(Cl)cc12 (stereo not shown)
2. COP(=O)(c1cc(F)cc(F)c1)c1c(C(=O)NCc2cc[n+]([O-])cc2)[nH]c2ccc(Cl)cc12 (stereo not shown) [Compound 22a]
3. COP(=O)(c1cccc(-c2ccccc2)c1)c1c(C(N)=O)[nH]c2ccc(Cl)cc12 (stereo not shown)
4. COP(=O)(c1cc(F)cc(F)c1)c1c(C(=O)NCc2ccccc2F)[nH]c2ccc(Cl)cc12 (stereo not shown)
5. COP(=O)(c1cccc(C)c1)c1c(C(=O)NCc2ccco2)[nH]c2ccc(Cl)cc12 (stereo not shown) [Compound 18b]

1: 8.02; 2: 8.51; 3: 8.00; 4: 7.96; 5: 8.44

Record COP(=O)(c1cccc(C#N)c1)c1c(C(N)=O)[nH]c2ccc(Cl)cc12 (stereo not shown) : what is its pEC50 with HIV BH-10 WT?
9.05
